target: T1, human PD-1 expressed on cells (human, UniProt Q15116 25-288); assay: flow cytometry, SEB-activated PBMC donor one
T1 construct: whole, on cells
T1 sequence (Q15116 25-288): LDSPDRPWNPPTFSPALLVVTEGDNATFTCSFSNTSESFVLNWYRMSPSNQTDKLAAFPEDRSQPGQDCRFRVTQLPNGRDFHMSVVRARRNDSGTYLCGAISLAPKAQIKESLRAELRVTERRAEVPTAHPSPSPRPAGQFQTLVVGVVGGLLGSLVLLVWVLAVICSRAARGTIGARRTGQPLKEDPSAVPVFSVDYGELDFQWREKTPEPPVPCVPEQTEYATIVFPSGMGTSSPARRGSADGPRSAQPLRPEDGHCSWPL
Readings of MFI at 100 nM for the listed binders
Number only, in MFI; omit the unit.

- BINDER: "24H9 (antibody, human IgG1, V domains shown) VH: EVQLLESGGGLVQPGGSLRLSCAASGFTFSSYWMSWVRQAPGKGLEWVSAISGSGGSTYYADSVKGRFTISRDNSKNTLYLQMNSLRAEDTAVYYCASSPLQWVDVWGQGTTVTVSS VL: DIQMTQSPSSLSASVGDRVTITCRASQGISSWLAWYQQKPGKAPKLLIYSASSLQSGVPSRFSGSGSGTDFTLTISSLQPEDFATYYCQQANSFPFTFGPGTKVDIK"
  MFI at 100 nM (MFI): 18.7

Query binder follows.
Could you please provide reported MFI at 100 nM for 19B10 (antibody, human IgG1, V domains shown) VH: EVQLLESGGGLVQPGGSLRLSCAASGFTFSSYAMHWVRQAPGKGLEWVSGISNSGGNTYYADSVKGRFTISRDNSKNTLYLQMNSLRAEDTAVYYCARDNYYYYMDVWGKGTTVTVSS VL: DIQMTQSPSSLSASVGDRVTITCRASQSVSTWLAWYQQKPGKAPKLLIYAASNLETGVPSRFSGSGSGTDFTLTISSLQPEDFATYYCQQTYSTPYTFGQGTKLEIK ? Thanks!
12.4
